Target: T1, BCMA (Homo sapiens (Human), UniProt Q02223 1-54, limits assumed)
T1 sequence: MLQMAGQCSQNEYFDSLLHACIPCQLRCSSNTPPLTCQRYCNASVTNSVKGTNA
Assay: ELISA, format not described
Design: unit not given here
METRIC NAME: ELISA_avg
Answer with the value's number alone.

Enquiry: Return the recorded ELISA_avg value; entry: D-domain SEQ ID NO: 295 (designed binder) MGSWFYFKQKLAFIKWYLEALGGSEAELANFEIYIAEFEVMLQQYKGKGNPEVEALRKEAAAIRDELQAYRHN
Return: 7.23

Enquiry: Please report the measured ELISA_avg for D-domain SEQ ID NO: 266 (designed binder) MGSWATFKYRLALIKWHLEALGGSEAELADFEEYIAGFEEGLQKYKGKGNPEVEALRKEAAAIRDELQAYRHN
Return: 15.1

Enquiry: Supply recorded ELISA_avg for D-domain SEQ ID NO: 133 (designed binder) MGSWVEFDRRLVAIYIRLWALGGSEAELAAFEKEIAAFESELQAYKGKGNPEVEKLRYDAATIRETLQAYRHN here.
Return: 8

Enquiry: Please give the documented ELISA_avg of D-domain SEQ ID NO: 334 (designed binder) MGSWTYFKEHLASIKFWLEALGGSEAELAFFEDAIAEFEKDLQYYKGKGNPEVEALRKEAAAIRDELQAYRHN
Return: 6.6

Enquiry: # return recorded ELISA_avg for input D-domain SEQ ID NO: 208 (designed binder) MGSWSEFWERLEAIYDRLYALGGSEAELAAFEKEIAAFESELQAYKGKGNPEVEELRRTAATIRSFLQAYRHN
Return: 18.8

Enquiry: Tell me ELISA_avg reported for D-domain SEQ ID NO: 253 (designed binder) MGSWSGFKYRLAVIKWYLEALGGSEAELATFEEWIAEFETELQFYKGKGNPEVEALRKEAAAIRDELQAYRHN
Return: 14
